# System: Fibroblast
# METHOD NOTES: Multiplex assay against human fibroblast
# Assay type: toxicity, cell-based
# TEST SETTINGS: 48 h, 10 µM, compound concentration 10 uM, replicate 2
// reported Total Cell Count for each item listed
PROPERTY LABEL: Total Cell Count

CN(C)CCCc1cc(C(=O)Nc2ccc(-c3ccncc3)cc2)ccc1O.Cl.Cl: 261
Cc1ccc(C(C)(O)c2nc3ccccc3s2)c(C)c1 (centres undefined): 143
CCCN1CCC[C@@H]2Cc3n[nH]cc3C[C@H]21.Cl [QUINPIROLE HYDROCHLORIDE]: 192
CSCC[C@H](NC=O)C(=O)N[C@@H](CC(C)C)C(=O)N[C@@H](Cc1ccccc1)C(=O)O: 231
Cc1ccccc1C(=O)Nc1ccc(C(=O)N2CCCC(N(C)C)c3ccccc32)cc1.Cl (centres undefined): 113
COc1cc(C(=O)N(CCCc2ccccc2)Cc2ccc(CC(=O)O)cc2)cc(OC)c1C: 187
O=C(O)c1cc2ccccc2c(Cc2c(O)c(C(=O)O)cc3ccccc23)c1O [PAMOIC ACID]: 156
CN1CCN2c3ncccc3Cc3ccccc3C2C1 (centres undefined) [MIRTAZAPINE]: 120
C[C@H](NC(=O)c1c(C(F)F)nn(C)c1Oc1cccc(C(F)(F)F)c1)c1ccc(C(=O)O)cc1 [PALUPIPRANT]: 122
